Where these numbers come from: patent US11504441B2

Experiment: in vivo
Parameters: species or system mice
Conditions: male, NODSCID 1L2RγKO, mouse, iv, total radioactivity, Tumor uptake

compound	tissue uptake at 24 h [%ID/g]
COc1ccc(CCCC(=O)NCC(=O)N[C@@H](CCCCNC(=O)CN2CCN(CC(=O)O)CCN(CC(=O)O)CCN(CC(=O)O)CC2)C(=O)NC[C@H]2CC[C@H](C(=O)N[C@@H](Cc3c4ccccc4cc4ccccc34)C(=O)NCCCC[C@H](NC(=O)N[C@@H](CCCC(=O)O)C(=O)O)C(=O)O)CC2)cc1 [177Lu-HTK03170, metal not drawn]	57.2
O=C(O)CCC[C@H](NC(=O)N[C@@H](CCCCNC(=O)[C@H](Cc1c2ccccc2cc2ccccc12)NC(=O)[C@H]1CC[C@H](CNC(=O)CN2CCN(CC(=O)O)CCN(CC(=O)O)CCN(CC(=O)O)CC2)CC1)C(=O)O)C(=O)O [177Lu-HTK03149, metal not drawn]	13.8

###

Assay: in vivo
Set-up: species or system mice
Conditions: male, NODSCID 1L2RγKO, mouse, iv, total radioactivity, Thyroid uptake

compound	tissue uptake at 1 h
COc1ccc(CCCC(=O)NCC(=O)N[C@@H](CCCCNC(=O)CN2CCN(CC(=O)O)CCN(CC(=O)O)CCN(CC(=O)O)CC2)C(=O)NC[C@H]2CC[C@H](C(=O)N[C@@H](Cc3c4ccccc4cc4ccccc34)C(=O)NCCCC[C@H](NC(=O)N[C@@H](CCCC(=O)O)C(=O)O)C(=O)O)CC2)cc1 [177Lu-HTK03170, metal not drawn]	2.9 %ID/g
COc1ccc(CCCC(=O)NCC(=O)N[C@@H](CCCCNC(=O)CN2CCN(CC(=O)O)CCN(CC(=O)O)CCN(CC(=O)O)CC2)C(=O)NC[C@H]2CC[C@H](C(=O)N[C@@H](Cc3c4ccccc4cc4ccccc34)C(=O)NCCCC[C@H](NC(=O)N[C@@H](COCC(=O)O)C(=O)O)C(=O)O)CC2)cc1 [177Lu-HTK04028, metal not drawn]	3.3 %ID/g
O=C(O)CCC[C@H](NC(=O)N[C@@H](CCCCNC(=O)[C@H](Cc1c2ccccc2cc2ccccc12)NC(=O)[C@H]1CC[C@H](CNC(=O)CN2CCN(CC(=O)O)CCN(CC(=O)O)CCN(CC(=O)O)CC2)CC1)C(=O)O)C(=O)O [177Lu-HTK03149, metal not drawn]	0.27 %ID/g

###

Assay: in vivo
Settings: male, NODSCID 1L2RγKO, mouse, iv, total radioactivity, Thyroid uptake
value_type: tissue uptake at 1 h

compound	value_type	result
O=C(O)CCC[C@H](NC(=O)N[C@@H](CCCCNC(=O)[C@H](Cc1c2ccccc2cc2ccccc12)NC(=O)c1ccc(NC(=O)CN2CCN(CC(=O)O)CCN(CC(=O)O)CCN(CC(=O)O)CC2)cc1)C(=O)O)C(=O)O [68Ga-HTK04041, metal not drawn]	tissue uptake at 1 h	0.29 %ID/g
O=C(O)C[C@H](NC(=O)N[C@@H](CCCCNC(=O)[C@H](Cc1c2ccccc2cc2ccccc12)NC(=O)[C@H]1CC[C@H](CNC(=O)CN2CCN(CC(=O)O)CCN(CC(=O)O)CCN(CC(=O)O)CC2)CC1)C(=O)O)C(=O)O [68Ga-HTK03161, metal not drawn]	tissue uptake at 1 h	0.29 %ID/g
O=C(O)CCC[C@H](NC(=O)N[C@@H](CCCCNC(=O)[C@H](Cc1cccc(I)c1)NC(=O)[C@H]1CC[C@H](CNC(=O)CN2CCN(CC(=O)O)CCN(CC(=O)O)CCN(CC(=O)O)CC2)CC1)C(=O)O)C(=O)O [68Ga-HTK04053, metal not drawn]	tissue uptake at 1 h	0.09 %ID/g
O=C(O)CCCCC(NC(=O)N[C@@H](CCCCNC(=O)[C@H](Cc1c2ccccc2cc2ccccc12)NC(=O)[C@H]1CC[C@H](CNC(=O)CN2CCN(CC(=O)O)CCN(CC(=O)O)CCN(CC(=O)O)CC2)CC1)C(=O)O)C(=O)O (single isomer, unassigned) [68Ga-HTK03189A, metal not drawn]	tissue uptake at 1 h	0.25 %ID/g
